test: in vivo; details: mouse, mice, oral, aqueous solution, 10 days observation
Readout name: LD50 at 240 h (mg/kg)
Report as a plain number; the unit mg/kg is understood.

Example entries begin here.
Compound	LD50 at 240 h (mg/kg)
CCCCCC(C)(N)CCC (centres unmarked)	1750
CCCCC(N)(CCCC)CCCC	500

Data request: Recorded LD50 at 240 h for CCCC(N)(CC)CCC , please?
Data returned: 150

Data request: I'd like to know its LD50 at 240 h. The compound in question is CCCC(N)(CCC)CCC
Data returned: 100
